Documented mass density across a set of compounds
- test_parameters: 363.15 K; 101.33 kPa; Liquid; Vibrating tube method
Numbers after ± are expanded uncertainties.

smiles_code | mass density
COCCOCCOCCOCCOC | 948.1 ± 2 kg/m3
COCCOCCOCCOC | 919.4 ± 2 kg/m3
OCCOCCOCCO | 1069.8 ± 2 kg/m3
COCCOCCO | 957.9 ± 2 kg/m3
OCCOCCO | 1066.6 ± 2 kg/m3
CCOCCO | 866.1 ± 2 kg/m3
COCCOCCOC | 874.2 ± 1.1 kg/m3
CCOCCOCCOCC | 841.4 ± 4 kg/m3
OCCO | 1064 ± 1 kg/m3
CCOCCOCCO | 926.1 ± 4.1 kg/m3

Attribution: the NIST ThermoML archive (doi:10.1021/acs.jced.5b00662)
